Entry source: ChEMBL document CHEMBL5584312

Experiment: Cytotoxicity against mouse STC-1 cells assessed as reduction in cell viability after 2 hrs by MTT assay
Type: toxicity, cell-based
readoutType: IC50 at 2 h (µg/mL)
Please give a number only; it is taken to be in µg/mL.

QUERY: Please report the recorded IC50 at 2 h for COc1cc(O)c(CC=C(C)C)c(O)c1C(=O)/C=C/c1ccc(O)cc1 [XANTHOHUMOL] .
RESULT: 35.3
